Origin of the recorded values: ChEMBL document CHEMBL2331277

# maps each entry to its Activity
Test system: Mus musculus
method: Antiulcerogenic activity in ethanol-induced gastric ulcer Swiss albino mouse model assessed as lesion length at 7.2 mg/kg administered intragastrically for 3 days
Format: functional, Stomach
experimental_setup: route intragastric

Answered cases to consult:
COc1c(C)cnc(CNc2ccc3c(c2)nc(C)n3C[C@@H](O)[C@H]2O[C@H](O)[C@@H](O)[C@H]2O)c1C	30 mm
Cc1nc2cc(NCc3ccccn3)ccc2n1C[C@@H](O)[C@H]1O[C@H](O)[C@@H](O)[C@H]1O	58 mm
COc1ccnc(CNc2ccc3[nH]c(C)nc3c2)c1OC	67 mm
COc1ccnc(CNc2ccc3c(c2)nc(C)n3C[C@@H](O)[C@H]2O[C@H](O)[C@@H](O)[C@H]2O)c1C	42 mm

Query :: What value of Activity has been reported for the following compound? COc1ccnc(CNc2ccc3c(c2)nc(C)n3C[C@@H](O)[C@H]2O[C@H](O)[C@@H](O)[C@H]2O)c1OC
Result :: 34 mm
